# target-desc: FOS (Homo sapiens)
# Sequence (P01100 137-200 limits assumed): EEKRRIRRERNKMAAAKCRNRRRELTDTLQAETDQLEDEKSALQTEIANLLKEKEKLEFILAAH
# assay-name: Direct-binding FRET assay
# Design: made in house
# condition-description: 4°C; C-terminal fluorescein design as donor, TAMRA target titrated; read-out: Kd
Where no end group is shown, it is not given here.
measured-endpoint: Kd

Input: So what does the record say about Kd for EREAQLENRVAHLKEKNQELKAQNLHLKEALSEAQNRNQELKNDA [XBP1-d1] ?
Output: > 1 µM

* * *

Each entry below carries its reported Kd.
# target-desc: MAF (Homo sapiens, UniProt O75444)
# Sequence (O75444 288-351 limits assumed): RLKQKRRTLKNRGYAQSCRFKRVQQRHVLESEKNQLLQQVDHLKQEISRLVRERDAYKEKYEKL
# assay-name: Direct-binding FRET assay
# Parameters: made in house
# condition-description: 23°C; N-terminal rhodamine design; mean or single; read-out: Kd
Where no end group is shown, it is not given here.

- sequence-input: "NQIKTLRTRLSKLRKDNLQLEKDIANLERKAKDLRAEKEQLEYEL [ATF4-d1]"
  Kd: "> 1 µM"

Input: So what does the record say about Kd for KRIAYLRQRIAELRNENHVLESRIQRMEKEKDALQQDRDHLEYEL [ATF5-d1] ?
Output: > 5 µM

Input: So what does the record say about Kd for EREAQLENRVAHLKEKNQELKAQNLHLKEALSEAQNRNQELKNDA [XBP1-d1] ?
Output: > 1 µM
